# EXPERIMENTAL_DETAILS: Biodistribution experiments in normal mice after i.v. injection
# Assay type: in vivo
# CONDITION_SET: male, ddY, mouse, in vivo, iv, total radioactivity, Biodistribution of radioactivity, Lung
Where a SMILES comes first, the peptide text is derived from it. [ ]: non-standard residue; d: D form. The star is where a group is joined. DOTA = O=C(O)CN1CCN(CC(=O)O)CCN(CC(=O)*)CCN(CC(=O)O)CC1
READOUT: tissue uptake dose at 3 h (%ID)
Please respond with the number in %ID and leave the unit unwritten.

Examples with answers:
O=C(O)C[C@@H](NC(=O)[C@@H](CC(=O)O)NC(=O)CN1CCN(CC(=O)O)CCN(CC(=O)O)CCN(CC(=O)O)CC1)C(=O)O [^67Ga-DOTA-(D-Asp)2, metal not drawn] ({DOTA}-[dD]-[dD]-OH) :: 0.08
O=C(O)CC[C@@H](NC(=O)[C@@H](CCC(=O)O)NC(=O)[C@@H](CCC(=O)O)NC(=O)[C@@H](CCC(=O)O)NC(=O)[C@@H](CCC(=O)O)NC(=O)[C@@H](CCC(=O)O)NC(=O)[C@@H](CCC(=O)O)NC(=O)[C@@H](CCC(=O)O)NC(=O)[C@@H](CCC(=O)O)NC(=O)[C@@H](CCC(=O)O)NC(=O)[C@@H](CCC(=O)O)NC(=O)[C@@H](CCC(=O)O)NC(=O)[C@@H](CCC(=O)O)NC(=O)[C@@H](CCC(=O)O)NC(=O)CN1CCN(CC(=O)O)CCN(CC(=O)O)CCN(CC(=O)O)CC1)C(=O)O [^67Ga-DOTA-(D-Glu)14, metal not drawn] :: 0.04
O=C(O)C[C@@H](NC(=O)[C@@H](CC(=O)O)NC(=O)[C@@H](CC(=O)O)NC(=O)[C@@H](CC(=O)O)NC(=O)[C@@H](CC(=O)O)NC(=O)[C@@H](CC(=O)O)NC(=O)[C@@H](CC(=O)O)NC(=O)[C@@H](CC(=O)O)NC(=O)CN1CCN(CC(=O)O)CCN(CC(=O)O)CCN(CC(=O)O)CC1)C(=O)O [^67Ga-DOTA-(D-Asp)8, metal not drawn] ({DOTA}-[dD][dD][dD][dD][dD][dD][dD][dD]-OH) :: 0.1

[ask] Reported tissue uptake dose at 3 h, compound O=C(O)C[C@@H](NC(=O)[C@@H](CC(=O)O)NC(=O)[C@@H](CC(=O)O)NC(=O)[C@@H](CC(=O)O)NC(=O)[C@@H](CC(=O)O)NC(=O)CN1CCN(CC(=O)O)CCN(CC(=O)O)CCN(CC(=O)O)CC1)C(=O)O [^67Ga-DOTA-(D-Asp)5, metal not drawn] ({DOTA}-[dD][dD][dD][dD][dD]-OH) : ____
[reply] 0.09

[ask] Reported tissue uptake dose at 3 h, compound O=C(O)CC[C@H](NC(=O)[C@H](CCC(=O)O)NC(=O)[C@H](CCC(=O)O)NC(=O)[C@H](CCC(=O)O)NC(=O)[C@H](CCC(=O)O)NC(=O)[C@H](CCC(=O)O)NC(=O)[C@H](CCC(=O)O)NC(=O)[C@H](CCC(=O)O)NC(=O)[C@H](CCC(=O)O)NC(=O)[C@H](CCC(=O)O)NC(=O)[C@H](CCC(=O)O)NC(=O)[C@H](CCC(=O)O)NC(=O)[C@H](CCC(=O)O)NC(=O)[C@H](CCC(=O)O)NC(=O)CN1CCN(CC(=O)O)CCN(CC(=O)O)CCN(CC(=O)O)CC1)C(=O)O [^67Ga-DOTA-(L-Glu)14, metal not drawn] : ____
[reply] 0.06

====

# EXPERIMENTAL_DETAILS: Biodistribution experiments in normal mice after i.v. injection
# Type: in vivo
# CONDITION_SET: male, ddY, mouse, in vivo, iv, total radioactivity, Biodistribution of radioactivity, Stomach
READOUT: tissue uptake dose at 1 h (%ID)
Please respond with the number in %ID and leave the unit unwritten.

[ask] Reported tissue uptake dose at 1 h, compound O=C(O)CC[C@@H](NC(=O)[C@@H](CCC(=O)O)NC(=O)[C@@H](CCC(=O)O)NC(=O)[C@@H](CCC(=O)O)NC(=O)[C@@H](CCC(=O)O)NC(=O)[C@@H](CCC(=O)O)NC(=O)[C@@H](CCC(=O)O)NC(=O)[C@@H](CCC(=O)O)NC(=O)[C@@H](CCC(=O)O)NC(=O)[C@@H](CCC(=O)O)NC(=O)[C@@H](CCC(=O)O)NC(=O)[C@@H](CCC(=O)O)NC(=O)[C@@H](CCC(=O)O)NC(=O)[C@@H](CCC(=O)O)NC(=O)CN1CCN(CC(=O)O)CCN(CC(=O)O)CCN(CC(=O)O)CC1)C(=O)O [^67Ga-DOTA-(D-Glu)14, metal not drawn] : ____
[reply] 0.19

====

# EXPERIMENTAL_DETAILS: Biodistribution experiments in normal mice after i.v. injection
# Type: in vivo
# CONDITION_SET: male, ddY, mouse, in vivo, iv, total radioactivity, mice, i.v., 180 min after injection, mean (SD); read-out: Biodistribution of radioactivity, Large-intestine
# Description: Experiments with animals were conducted in strict accordance with the Guidelines for the Care and Use of Laboratory Animals of Kanazawa University. […] Complete left femurs were isolated as representative bone samples, radioactivity was determined using gamma counters (AccuFLEX γ ARC-8001 in the case of ^18F, Hitachi, Ltd.), and background counts and physical decay were corrected during counting.
Where a SMILES comes first, the peptide text is derived from it. [ ]: non-standard residue; d: D form. The star is where a group is joined. DOTA = O=C(O)CN1CCN(CC(=O)O)CCN(CC(=O)*)CCN(CC(=O)O)CC1
READOUT: tissue uptake dose at 3 h (%ID)
Please respond with the number in %ID and leave the unit unwritten.

[ask] Reported tissue uptake dose at 3 h, compound O=C(O)C[C@@H](NC(=O)[C@@H](CC(=O)O)NC(=O)[C@@H](CC(=O)O)NC(=O)[C@@H](CC(=O)O)NC(=O)[C@@H](CC(=O)O)NC(=O)[C@@H](CC(=O)O)NC(=O)[C@@H](CC(=O)O)NC(=O)[C@@H](CC(=O)O)NC(=O)[C@@H](CC(=O)O)NC(=O)[C@@H](CC(=O)O)NC(=O)[C@@H](CC(=O)O)NC(=O)CN1CCN(CC(=O)O)CCN(CC(=O)O)CCN(CC(=O)O)CC1)C(=O)O [^67Ga-DOTA-(D-Asp)11, metal not drawn] ({DOTA}-[dD][dD][dD][dD][dD][dD][dD][dD][dD][dD][dD]-OH) : ____
[reply] 0.11

====

# EXPERIMENTAL_DETAILS: Biodistribution experiments in normal mice after i.v. injection
# Type: in vivo
# CONDITION_SET: male, ddY, mouse, in vivo, iv, total radioactivity, Biodistribution of radioactivity, Stomach
Where a SMILES comes first, the peptide text is derived from it. [ ]: non-standard residue; d: D form. The star is where a group is joined. DOTA = O=C(O)CN1CCN(CC(=O)O)CCN(CC(=O)*)CCN(CC(=O)O)CC1
READOUT: tissue uptake dose at 1 h (%ID)
Please respond with the number in %ID and leave the unit unwritten.

Examples with answers:
O=C(O)C[C@@H](NC(=O)[C@@H](CC(=O)O)NC(=O)CN1CCN(CC(=O)O)CCN(CC(=O)O)CCN(CC(=O)O)CC1)C(=O)O [^67Ga-DOTA-(D-Asp)2, metal not drawn] ({DOTA}-[dD]-[dD]-OH) :: 0.06
O=C(O)C[C@@H](NC(=O)[C@@H](CC(=O)O)NC(=O)[C@@H](CC(=O)O)NC(=O)[C@@H](CC(=O)O)NC(=O)[C@@H](CC(=O)O)NC(=O)CN1CCN(CC(=O)O)CCN(CC(=O)O)CCN(CC(=O)O)CC1)C(=O)O [^67Ga-DOTA-(D-Asp)5, metal not drawn] ({DOTA}-[dD][dD][dD][dD][dD]-OH) :: 0.1
O=C(O)CC[C@H](NC(=O)[C@H](CCC(=O)O)NC(=O)[C@H](CCC(=O)O)NC(=O)[C@H](CCC(=O)O)NC(=O)[C@H](CCC(=O)O)NC(=O)[C@H](CCC(=O)O)NC(=O)[C@H](CCC(=O)O)NC(=O)[C@H](CCC(=O)O)NC(=O)[C@H](CCC(=O)O)NC(=O)[C@H](CCC(=O)O)NC(=O)[C@H](CCC(=O)O)NC(=O)[C@H](CCC(=O)O)NC(=O)[C@H](CCC(=O)O)NC(=O)[C@H](CCC(=O)O)NC(=O)CN1CCN(CC(=O)O)CCN(CC(=O)O)CCN(CC(=O)O)CC1)C(=O)O [^67Ga-DOTA-(L-Glu)14, metal not drawn] :: 0.07

Now consider a different compound.
[ask] Reported tissue uptake dose at 1 h, compound O=C(O)C[C@@H](NC(=O)[C@@H](CC(=O)O)NC(=O)[C@@H](CC(=O)O)NC(=O)[C@@H](CC(=O)O)NC(=O)[C@@H](CC(=O)O)NC(=O)[C@@H](CC(=O)O)NC(=O)[C@@H](CC(=O)O)NC(=O)[C@@H](CC(=O)O)NC(=O)CN1CCN(CC(=O)O)CCN(CC(=O)O)CCN(CC(=O)O)CC1)C(=O)O [^67Ga-DOTA-(D-Asp)8, metal not drawn] ({DOTA}-[dD][dD][dD][dD][dD][dD][dD][dD]-OH) : ____
[reply] 0.04
